FYI, the data here is from PubChem BioAssay AID1159580.

- Test Name: chemical genetic growth profiling, strain panel (AID 1159580);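 further: tested at 20 µM; growth read once vehicle control cultures reached saturation at 30 °C; 1 = growth at the plate median or of vehicle wells; lower values mean less growth of the strain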
- Condition Details: S. cerevisiae deletion strains, growth OD, locus YBL061C, strain skt5, hits give low values
About 2,000 (36%) of roughly 5,500 compounds were called active. Another 18% or so got no clear call; they are omitted. The list shows a part of the results.
Property Measured: normalized growth
Answers are plain numbers.

| Molecule | Property Measured | Readout Value |
| --- | --- | --- |
| CC1(C)CC23C(=O)CCC(O)C2(C)CCC13 (stereo not given) | normalized growth | 0.99 |
| CC(NC(C)(C)C)C(=O)c1cccc(Cl)c1 (stereo not given) | normalized growth | 0.993 |
| CN1CCCCC1c1ccc(-c2cccnc2)nc1 (stereo not given) | normalized growth | 0.975 |

Need normalized growth for each of these molecules.
1. COc1ccc([C@@H](C)C(=O)c2ccc(O)cc2O)cc1
2. CCCCN(CC)c1c([N+](=O)[O-])cc(C(F)(F)F)cc1[N+](=O)[O-]
3. Cn1c(=O)[nH]c2ncn(C)c2c1=O

1. 0.976
2. 1
3. 0.99

Below is a list of molecules. For each, state its recorded normalized growth.
1. CCC1(C2=NCCN2)Cc2ccccc2O1 (stereo not given)
2. O=C1C=C(O)c2ccccc2C1=O
3. COc1cc(O)ccc1C(C)=O
4. C=C[C@H]1CN2CC[C@H]1C[C@H]2[C@H](O)c1ccnc2ccccc12
5. CCCN(CCC)c1c([N+](=O)[O-])cc(C(F)(F)F)cc1[N+](=O)[O-]

1
0.956
1.02
0.995
1.01

Each molecule below has a recorded value; state its normalized growth.
1. NNCc1ccccc1
2. O=C1c2cccc(O)c2C(=O)c2c(O)cccc21
3. COc1ccc(CC(=O)c2ccc(O)cc2O)cc1

1. 0.983
2. 0.929
3. 0.986

Return normalized growth (reported value) for this molecule: NC(Cc1ccc(Cl)cc1)C(=O)O (stereo not given)
0.999

----------
Provide the recorded normalized growth for the entries that follow.
- Test Name: chemical genetic growth profiling, strain panel (AID 1159580)
- Condition Details: S. cerevisiae deletion strains, growth OD, locus YMR307W, strain GAS1, hits give low values
Among all 5,500 compounds or so, about 2,000 (36%) were called active. Not shown: some 18% with an inconclusive outcome. The list shows a part of the results.
Answers are plain numbers.

Some compounds with known normalized growth results, for comparison:
| Compound | Property Measured | Readout Value |
| --- | --- | --- |
| COc1ccc(NS(=O)(=O)c2ccc(N)cc2)nn1 | normalized growth | 1.01 |
| CC(=O)OC[C@@]1(O)C[C@@]23CCC4c5ccoc5CC[C@]4(C)C2CC[C@@H]1C3 (stereo not given in full) | normalized growth | 0.779 |
| CC(=O)OCC1=C(C(=O)O)N2C(=O)[C@@H](NC(=O)CSc3ccncc3)[C@H]2SC1 | normalized growth | 0.972 |
| Cc1cc2c(cc1C)CSC(C)(c1ccc(F)cc1)SC2 | normalized growth | 0.737 |

Alright, here's another compound for you.
For the compound CC(C)C1CCC(C(=O)N[C@@H](Cc2ccccc2)C(=O)O)CC1 (stereo not given in full) , give its reported normalized growth.
0.998

----------
- Test Name: chemical genetic growth profiling, strain panel (AID 1159580)
- Condition Details: S. cerevisiae deletion strains, growth OD, locus YAL026C, strain drs2, hits give low values
The whole screen tested about 5,500 compounds, of which about 2,000 (36%) were called active. Another 18% or so got no clear call; they are omitted. The list shows a part of the results.
I'd be grateful if you could share measured normalized growth for these entries.
Numbers only.

| Molecule | normalized growth |
| --- | --- |
| O=C(O)CC[N+](=O)[O-] | 1.01 |
| CC(=O)OC1CCC23CC1(C)CCC2C(C)(C)CC3OC(C)=O (stereo not drawn) | 1.02 |
| CCCCCCCCCCCCCCCC(=O)OC[C@H](NC(=O)C(Cl)Cl)[C@H](O)c1ccc([N+](=O)[O-])cc1 | 0.995 |

Here are 5 molecules. What values of normalized growth were reported for them?
1. O=C(O)[C@H]1/C(=C/CO)O[C@@H]2CC(=O)N21
2. NC(Cc1ccc(Cl)cc1)C(=O)O (stereo not drawn)
3. Oc1cc2c(cc1O)C(c1ccccc1)CNCC2 (stereo not drawn)
4. COc1cc([C@@H]2c3cc4c(cc3[C@H](O)[C@H]3COC(=O)[C@H]23)OCO4)cc(OC)c1OC
5. O=C(O)c1cccnc1C(=O)O

0.991
1.01
0.988
1.03
1

----------
- Test Name: chemical genetic growth profiling, strain panel (AID 1159580);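 further: tested at 20 µM; growth read once vehicle control cultures reached saturation at 30 °C; 1 = growth at the plate median or of vehicle wells; lower values mean less growth of the strain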
- Condition Details: S. cerevisiae deletion strains, growth OD, locus YGR078C, strain PAC10, hits give low values
About 2,000 (36%) of roughly 5,500 compounds were called active. About 18% were inconclusive and are not listed. The list shows a part of the results.
Property Measured: normalized growth
Numbers only.

| Compound | normalized growth |
| --- | --- |
| C#CCn1c(=O)c2c(ncn2C)n(C)c1=O | 1.01 |
| COc1ccc(CCNC(=O)c2ccccc2Cl)cc1OC | 1 |
| CCCc1ccc(-c2nc(-c3ccc(C)cc3)no2)cc1 | 0.973 |
| CCOC(=O)c1cnc(SCC(=O)c2ccc(Cl)cc2Cl)[nH]1 | 1.02 |
| O=C1CSC(c2cccnc2)N1c1ccc(Cl)cc1 (stereo not given) | 1 |
| CCOC(=O)c1c[nH]c2c(F)cccc2c1=O | 0.982 |
| O=C(CNc1cccc(Cl)c1)c1ccc(Cl)cc1 | 0.945 |
| CNC(C)(C)Cc1ccccc1 | 0.994 |
| O=C1CSC(c2cccnc2)N1c1ccc(C2CCCCC2)cc1 (stereo not given) | 1.01 |
| O=C(N[C@@H](CO)[C@H](O)c1ccc([N+](=O)[O-])cc1)C(Cl)Cl | 1.02 |

Answer for every listed entry: what is its normalized growth? The entries follow.
1. COc1cc(OC)c2c(OC)c(-c3ccc4c(c3)OCO4)c(=O)oc2c1
2. Cn1c(Sc2ccc(C(F)(F)F)cc2[N+](=O)[O-])nnc1C(F)(F)F
3. OC[C@H]1O[C@@H](Oc2ccc(O)cc2)[C@H](O)[C@@H](O)[C@@H]1O
4. CCCc1ccc(/C(C)=N\O)cc1

[0.962, 1.01, 1.03, 0.93]

----------
- Test Name: chemical genetic growth profiling, strain panel (AID 1159580);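 further: tested at 20 µM; growth read once vehicle control cultures reached saturation at 30 °C; 1 = growth at the plate median or of vehicle wells; lower values mean less growth of the strain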
- Condition Details: S. cerevisiae deletion strains, growth OD, locus YOL012C, strain htz1
Among all 5,500 compounds or so, about 2,000 (36%) were called active. Inconclusive results (about 18%) are left out. The list shows a part of the results.
Property Measured: normalized growth
Give bare numbers.

| Molecule | Property Measured | Readout Value |
| --- | --- | --- |
| C=C(C)C1Cc2c(ccc3c(=O)c4c(oc23)COc2cc(OC)c(OC)cc2-4)O1 (centres undefined) | normalized growth | 1.59 |
| NS(=O)(=O)c1cc2c(cc1Cl)NCNS2(=O)=O | normalized growth | 0.74 |
| CCCCN(CC)c1c([N+](=O)[O-])cc(C(F)(F)F)cc1[N+](=O)[O-] | normalized growth | 0.93 |
| CC(C)c1cc2c(c(O)c1O)[C@@]1(C(=O)O)CCCC(C)(C)C1CC2 (some centres undefined) | normalized growth | 0.721 |

Hello, I would appreciate it if you could give normalized growth for each entry below.
1. Oc1cccc2cccnc12
2. C[N+]1(C)CCCC(OC(=O)C(O)(c2ccccc2)c2ccccc2)C1 (centres undefined)
3. C=C(C)C1Cc2c(ccc(C(=O)O)c2O)O1 (centres undefined)
4. O=c1c(O)c(-c2ccccc2)oc2cc(O)ccc12
5. CNC(C)(C)Cc1ccccc1
6. O=C1c2ccccc2C(=O)c2ccccc21
7. COc1cc(O)c2c(c1)C(=O)c1cc(C)cc(O)c1C2=O
8. O=C1C=C(O)c2ccccc2C1=O

1. 0.214
2. 0.94
3. 1.06
4. 0.446
5. 1.02
6. 0.796
7. 1.44
8. 0.668

----------
Please respond with reported normalized growth for every item in the list.
- Test Name: chemical genetic growth profiling, strain panel (AID 1159580);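 further: tested at 20 µM; growth read once vehicle control cultures reached saturation at 30 °C; 1 = growth at the plate median or of vehicle wells; lower values mean less growth of the strain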
- Condition Details: S. cerevisiae deletion strains, growth OD, strain wtn01, hits give low values
Screen size: about 5,500 compounds; about 2,000 (36%) were called active. Another 18% or so got no clear call; they are omitted. Some of the results follow.
Answers are plain numbers.

Study these solved cases before continuing.
| Given Smiles | Property Measured | Readout Value |
| --- | --- | --- |
| COc1cc(Cc2cnc(N)nc2N)cc(OC)c1OC | normalized growth | 0.977 |
| O=C1c2cccc(O)c2C(=O)c2c(O)cccc21 | normalized growth | 0.752 |
| O=C1C=CC(=O)c2c(O)cccc21 | normalized growth | 1.04 |
| NC(=NCCCCCCN=C(N)N=C(N)Nc1ccc(Cl)cc1)N=C(N)Nc1ccc(Cl)cc1 | normalized growth | 0.0592 |
| CC(C)N=C(N)N=C(N)Nc1ccc(Cl)cc1 | normalized growth | 1.01 |

Now for the compound whose normalized growth we want.
Supply normalized growth value. Item: O=C(O)CCC(=O)OC[C@@H](NC(=O)C(Cl)Cl)[C@H](O)c1ccc([N+](=O)[O-])cc1
1
